Target: T1, human CD71 extracellular domain (human, UniProt P02786 89-760)
T1 construct: also called hCD71; human CD71-ECD
T1 sequence (P02786 89-760): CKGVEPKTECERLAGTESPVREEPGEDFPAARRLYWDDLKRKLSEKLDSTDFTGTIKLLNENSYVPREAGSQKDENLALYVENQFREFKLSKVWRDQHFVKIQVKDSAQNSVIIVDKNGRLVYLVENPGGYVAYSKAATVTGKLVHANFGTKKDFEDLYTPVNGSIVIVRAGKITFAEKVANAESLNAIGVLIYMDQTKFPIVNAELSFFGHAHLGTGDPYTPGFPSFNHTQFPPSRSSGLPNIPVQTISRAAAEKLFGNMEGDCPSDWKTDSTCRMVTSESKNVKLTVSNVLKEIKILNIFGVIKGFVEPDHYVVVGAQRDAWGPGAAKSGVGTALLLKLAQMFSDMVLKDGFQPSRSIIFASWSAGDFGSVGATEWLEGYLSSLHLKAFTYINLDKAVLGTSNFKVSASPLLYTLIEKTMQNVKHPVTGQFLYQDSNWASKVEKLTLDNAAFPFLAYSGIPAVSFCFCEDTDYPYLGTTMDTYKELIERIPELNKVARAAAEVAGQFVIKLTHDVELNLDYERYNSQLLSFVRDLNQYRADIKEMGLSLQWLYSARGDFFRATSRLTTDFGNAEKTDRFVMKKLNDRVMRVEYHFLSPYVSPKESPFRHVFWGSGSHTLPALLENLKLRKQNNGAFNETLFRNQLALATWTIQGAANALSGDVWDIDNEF
Assay: primary ELISA, luminescence; also: test concentration or dose not given here
Listed here are binders together with their documented RLU.
Enter your answer as a number in RLU; do not include the unit.

{"binder": "CD71-binding FN3 domain of SEQ ID NO: 231 (designed binder) MSLPAPKNLVVSRVTEDSARLSWTAPDAAFDSFFIGYLEPQPPGEAIHLFVPGSERSYDLTGLKPGTEYNVTIQGVKGGFPSEPLIANSTT", "valueReported": "4.93e+06"}

Query (binder): CD71-binding FN3 domain of SEQ ID NO: 227 (designed binder) MSLPAPKNLVVSRVTEDSARLSWTAPDAAFDSFEIAYAELSTGEAIVLTVPGSERSYDLTGLKPGTEYYVHIGGVKGGSWSIPLSAIFTT ; field requested: RLU
2.62e+06
